B1: ZNF263 (parent)
chain: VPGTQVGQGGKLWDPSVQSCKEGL

Variants of: B1
Test description: protein stability index of a GFP-peptide fusion (GPS, HEK-293T) (PSI 1-6); higher = more stable;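 also: lentivirally expressed fusions sorted by FACS into six bins by GFP to DsRed ratio, PSI derived from sequencing read proportions per bin multiplied by bin number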
Experimental conditions: c terminus: a fixed tail appended
Threshold check on protein stability index: at or above 4 gives TRUE, strictly below gives FALSE.

Form field: protein stability index at least 4? Entry: `Q18C` FALSE

Form field: protein stability index at least 4? Entry: `Q5R` TRUE

Form field: protein stability index at least 4? Entry: `V6D` TRUE

Form field: protein stability index at least 4? Entry: `G7T` FALSE

Form field: protein stability index at least 4? Entry: `G3W` FALSE

Form field: protein stability index at least 4? Entry: `E22F` FALSE

Form field: protein stability index at least 4? Entry: `Q18D` TRUE

Form field: protein stability index at least 4? Entry: `G23I` FALSE

Form field: protein stability index at least 4? Entry: `V6C` FALSE

Form field: protein stability index at least 4? Entry: `G3I` TRUE

Form field: protein stability index at least 4? Entry: `P2H` FALSE

Form field: protein stability index at least 4? Entry: `S19V` TRUE

Form field: protein stability index at least 4? Entry: `Q5D` TRUE

Form field: protein stability index at least 4? Entry: `T4F` TRUE

Form field: protein stability index at least 4? Entry: `T4E` FALSE

Form field: protein stability index at least 4? Entry: `G23P` TRUE

Form field: protein stability index at least 4? Entry: `G3P` TRUE

Form field: protein stability index at least 4? Entry: `G7I` FALSE

Form field: protein stability index at least 4? Entry: `G3D` TRUE

Form field: protein stability index at least 4? Entry: `K11R` TRUE

Form field: protein stability index at least 4? Entry: `S16R` FALSE

Form field: protein stability index at least 4? Entry: `G7C` TRUE

Form field: protein stability index at least 4? Entry: `Q5G` TRUE

Form field: protein stability index at least 4? Entry: `P2T` FALSE

Form field: protein stability index at least 4? Entry: `Q18V` FALSE

Form field: protein stability index at least 4? Entry: `E22W` FALSE

Form field: protein stability index at least 4? Entry: `G3F` FALSE

Form field: protein stability index at least 4? Entry: `V17D` TRUE

Form field: protein stability index at least 4? Entry: `S19P` TRUE

Form field: protein stability index at least 4? Entry: `G9T` TRUE

Form field: protein stability index at least 4? Entry: `L12F` TRUE

Form field: protein stability index at least 4? Entry: `W13L` TRUE

Form field: protein stability index at least 4? Entry: `C20N` TRUE

Form field: protein stability index at least 4? Entry: `E22Y` FALSE

Form field: protein stability index at least 4? Entry: `C20D` TRUE

Form field: protein stability index at least 4? Entry: `V17S` TRUE
